Provenance of the data: patent US10711029B2

Experiment: Cytotoxicity in the replicon cells (staining with STT)
Type: cell-based
Conditions: human, Huh-7 luc/neo ET cells, read-out: HCV Replicon CC50
ASSAY_READOUT: CC50 at 72 h

{"MOLECULE": "CNc1nc(N)nc2c1ncn2[C@@H]1O[C@](F)(COP(=O)(N[C@@H](C)C(=O)OC(C)C)Oc2ccccc2)C(O)[C@@]1(C)F (stereo partly shown) [Cmpd 6]", "ASSAY_READOUT": "CC50 at 72 h", "ASSAY_RESULT": "> 10 µM"}
{"MOLECULE": "CCN(C)c1nc(N)nc2c1ncn2[C@@H]1O[C@](F)(COP(=O)(N[C@@H](C)C(=O)OC(C)C)Oc2ccccc2)C(O)[C@@]1(C)F (stereo partly shown) [Cmpd 14]", "ASSAY_READOUT": "CC50 at 72 h", "ASSAY_RESULT": "> 10 µM"}
{"MOLECULE": "CNc1nc(F)nc2c1ncn2[C@@H]1O[C@](F)(CO[P@@](=O)(N[C@@H](C)C(=O)OC(C)C)Oc2ccccc2)C(O)[C@@]1(C)F (stereo partly shown) [Cmpd 17]", "ASSAY_READOUT": "CC50 at 72 h", "ASSAY_RESULT": "> 50 µM"}
{"MOLECULE": "CC(C)OC(=O)[C@H](C)N[P@](=O)(OC[C@@]1(F)O[C@@H](n2cnc3c(N(C)C)nc(N)nc32)[C@](C)(F)C1O)Oc1ccccc1 (stereo partly shown) [Cmpd 16]", "ASSAY_READOUT": "CC50 at 72 h", "ASSAY_RESULT": "> 50 µM"}
{"MOLECULE": "CCN(C)c1nc(N)nc2c1ncn2[C@@H]1O[C@](F)(CO)C(O)[C@@]1(C)F (stereo partly shown) [Cmpd 13]", "ASSAY_READOUT": "CC50 at 72 h", "ASSAY_RESULT": "> 100 µM"}
{"MOLECULE": "CC(C)OC(=O)[C@H](C)N[P@](=O)(OC[C@@]1(F)O[C@@H](n2cnc3c(N(C)C)nc(F)nc32)[C@](C)(F)[C@@H]1O)Oc1ccccc1 [Cmpd 8]", "ASSAY_READOUT": "CC50 at 72 h", "ASSAY_RESULT": "35.3 µM"}
{"MOLECULE": "CC(C)OC(=O)[C@H](C)NP(=O)(OC[C@@]1(F)O[C@@H](n2cnc3c(N4CCCC4)nc(N)nc32)[C@](C)(F)C1O)Oc1ccccc1 (stereo partly shown) [Cmpd 12]", "ASSAY_READOUT": "CC50 at 72 h", "ASSAY_RESULT": "> 10 µM"}
{"MOLECULE": "CN(C)c1nc(N)nc2c1ncn2[C@@H]1O[C@](F)(CO)C(O)[C@@]1(C)F (stereo partly shown) [Cmpd 1]", "ASSAY_READOUT": "CC50 at 72 h", "ASSAY_RESULT": "> 100 µM"}
{"MOLECULE": "CC(C)OC(=O)[C@H](C)NP(=O)(OC[C@@]1(F)O[C@@H](n2cnc3c(N(C)C)nc(N)nc32)[C@](C)(F)C1O)Oc1ccccc1 (stereo partly shown) [Cmpd 2]", "ASSAY_READOUT": "CC50 at 72 h", "ASSAY_RESULT": "> 10 µM"}
{"MOLECULE": "CN(c1nc(N)nc2c1ncn2[C@@H]1O[C@](F)(CO)C(O)[C@@]1(C)F)C1CC1 (stereo partly shown) [Cmpd 3]", "ASSAY_READOUT": "CC50 at 72 h", "ASSAY_RESULT": "> 100 µM"}
{"MOLECULE": "CNc1nc(N)nc2c1ncn2[C@@H]1O[C@](F)(CO)C(O)[C@@]1(C)F (stereo partly shown) [Cmpd 5]", "ASSAY_READOUT": "CC50 at 72 h", "ASSAY_RESULT": "> 100 µM"}
{"MOLECULE": "C[C@@]1(F)C(O)[C@@](F)(CO)O[C@H]1n1cnc2c(N3CCCC3)nc(N)nc21 (stereo partly shown) [Cmpd 11]", "ASSAY_READOUT": "CC50 at 72 h", "ASSAY_RESULT": "> 100 µM"}
{"MOLECULE": "CNc1nc(F)nc2c1ncn2[C@@H]1O[C@](F)(CO[P@@](=O)(N[C@@H](C)C(=O)OC(C)C)Oc2ccccc2)[C@@H](O)[C@@]1(C)F [Cmpd 10]", "ASSAY_READOUT": "CC50 at 72 h", "ASSAY_RESULT": "54 µM"}
